Hello, the source for this data is patent US8148373B2, in case you need it.

System Name: Adrenergic β2 (H292 cells) (Homo sapiens)
Construct: endogenous in cells; host or cells: H292 cells
Protocol Text: Assay for Adrenergic β2 Mediated cAMP Production (concentration response, AlphaScreen cAMP detection)
Assay type: cell-based
Condition Summary: cAMP production, 60 minutes at room temperature, 300 μM rolipram, read-out: β2 pEC50 (converted)
Structures can show the parent of a compound that is named as a salt.
Value Type: EC50 (nM)

Some compounds with recorded EC50:
In plain terms, O=C(c1ccc2occc2c1)N1CCOC2(CCN(CCCCCCCCCNC[C@H](O)c3ccc(O)c4[nH]c(=O)sc34)CC2)C1 has a documented EC50 of 25.1

In plain terms, Cc1ccc(C(=O)N2CCOC3(CCN(Cc4ccc(F)c(CCNC[C@H](O)c5ccc(O)c6[nH]c(=O)ccc56)c4F)CC3)C2)s1 [Example 35, ditrifluoroacetate] has a documented EC50 of 12.6

In plain terms, CC(C)c1ncc(C(=O)N2CCOC3(CCN(CCOc4ccc(CNC[C@H](O)c5ccc(O)c6[nH]c(=O)sc56)cc4)CC3)C2)s1 has a documented EC50 of 63.1

In plain terms, O=C(c1ccc(Cl)s1)N1CCOC2(CCN(Cc3cc(F)cc(CCNC[C@H](O)c4ccc(O)c5[nH]c(=O)sc45)c3)CC2)C1 has a documented EC50 of 3.98

In plain terms, CC(C)c1ncc(C(=O)N2CCOC3(CCN(CCCCCCCCCNC[C@H](O)c4ccc(O)c5[nH]c(=O)sc45)CC3)C2)s1 [Example 115, formate] has a documented EC50 of 6.31

A = CCc1cc(C(=O)N2CCOC3(CCN(Cc4cc(F)cc(CCNC[C@H](O)c5ccc(O)c6[nH]c(=O)sc56)c4)CC3)C2)cs1 [Example 93, ditrifluoroacetate]
B = Cc1ccc(C(=O)N2CCOC3(CCN(Cc4cccc(OCCNC[C@H](O)c5ccc(O)c6[nH]c(=O)sc56)c4)CC3)C2)s1 [Example 38, ditrifluoroacetate]
Just curious, which one has the larger EC50 reading, A or B ? Selection: enter the item's label.
B

###

System Name: Adrenergic β2 (H292 cells) (Homo sapiens, UniProt P07550)
Construct: endogenous in cells; host or cells: H292 cells
Sequence (P07550 whole entry): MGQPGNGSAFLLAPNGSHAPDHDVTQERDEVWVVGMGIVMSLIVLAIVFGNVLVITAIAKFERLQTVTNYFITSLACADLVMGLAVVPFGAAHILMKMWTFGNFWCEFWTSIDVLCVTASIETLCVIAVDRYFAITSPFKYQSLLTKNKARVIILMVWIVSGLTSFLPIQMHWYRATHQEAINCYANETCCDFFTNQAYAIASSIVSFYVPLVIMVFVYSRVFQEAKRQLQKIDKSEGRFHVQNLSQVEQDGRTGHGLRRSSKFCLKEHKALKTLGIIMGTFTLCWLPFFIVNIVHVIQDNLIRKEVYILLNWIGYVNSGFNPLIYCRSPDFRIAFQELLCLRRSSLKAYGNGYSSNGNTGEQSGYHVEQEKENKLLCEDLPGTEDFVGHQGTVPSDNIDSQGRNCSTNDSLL
Protocol Text: Assay for Adrenergic β2 Mediated cAMP Production (concentration response, AlphaScreen cAMP detection)
Format: cell-based
Condition Summary: fraction relative to the maximum activity determined for formoterol
Method: Assay for Adrenergic β2 Mediated Camp Production H292 cells are grown in 225 cm2 flasks incubator at 37° C., 5% CO2 in RPMI medium containing 10% (v/v) FBS (foetal bovine serum) and 2 mM L-glutamine. […] The concentration of cAMP (cyclic adenosine monophosphate) in the cell lysate is determined using AlphaScreen™ methodology. […] Intrinsic Activity is expressed as a fraction relative to the maximum activity determined for formoterol in each experiment.
Counter-ions that a name gives are not always drawn.
Value Type: β2 Intrinsic activity

Some compounds with recorded β2 Intrinsic activity:
The compound Cc1ccc(C(=O)N2CCOC3(CCN(Cc4ccc(F)c(CCNC[C@H](O)c5ccc(O)c6[nH]c(=O)sc56)c4F)CC3)C2)s1 [Example 34, ditrifluoroacetate] , tested on Adrenergic β2 (H292 cells) (Homo sapiens, UniProt P07550), showed β2 Intrinsic activity of 1

The compound Cc1ccc(C(=O)N2CCOC3(CCN(CCc4cccc(CNC[C@H](O)c5ccc(O)c6[nH]c(=O)sc56)c4)CC3)C2)s1 [Example 20, ditrifluoroacetate] , tested on Adrenergic β2 (H292 cells) (Homo sapiens, UniProt P07550), showed β2 Intrinsic activity of 0.8

A = CC(C)c1cccc(C(=O)N2CCOC3(CCN(Cc4cccc(CCNC[C@H](O)c5ccc(O)c6[nH]c(=O)sc56)c4F)CC3)C2)n1 [Example 85, ditrifluoroacetate]
B = CC(CCCCCCCCN1CCC2(CC1)CN(C(=O)c1csc(C(C)C)n1)CCO2)NC[C@H](O)c1ccc(O)c2[nH]c(=O)sc12 (some centres unmarked) [Example 280, formate]
In terms of reported β2 Intrinsic activity, does A or B have the smaller number? Selection: enter the item's label.
A
